Where do these numbers come from? They come from PubChem BioAssay AID1159580.

# normalized growth annotations
test summary: chemical genetic growth profiling, strain panel (AID 1159580);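 further: tested at 20 µM; growth read once vehicle control cultures reached saturation at 30 °C; 1 = growth at the plate median or of vehicle wells; lower values mean less growth of the strain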
condition parameters: S. cerevisiae deletion strains, growth OD, locus YNL209W, strain ssb2, active compounds read low
In all, about 5,500 compounds went through this assay and about 2,000 (36%) were called active. Inconclusive results (about 18%) are left out. This is one part of the list.
Respond using a number only.

Solved cases below.
compound="C=C1C(C2(C)C=CC(=O)C(C)(C)C2CC(=O)OC)CC[C@@]2(C)[C@H](c3ccoc3)OC(=O)C3OC132 (stereo not given in full)" readout_type="normalized growth" experimental_value=1
compound="Nc1ccn(C2O[C@H](CO)[C@@H](O)[C@H]2O)c(=O)n1 (stereo not given in full)" readout_type="normalized growth" experimental_value=0.992
compound="C=C1C2CC[C@@]3(C)[C@H](c4ccoc4)OC(=O)C[C@]13O[C@H]1CC(=O)C(C)(C)C(CC(=O)OC)[C@@]21C (stereo not given in full)" readout_type="normalized growth" experimental_value=0.978
compound=O=c1cc(-c2ccccc2)oc2c(O)c(O)ccc12 readout_type="normalized growth" experimental_value=0.979

Any idea what normalized growth was measured for `N[C@@H]1[C@@H](O)[C@H](O)[C@@H](CO)O[C@H]1O` ?
1.01

And for `Cc1cc(=O)oc2c(O)c(O)ccc12` ?
0.977

And for CN(C)CCC(c1ccc(Br)cc1)c1ccccn1 (stereo not given) ?
0.993

And for OC[C@H]1OC([S-])[C@H](O)[C@@H](O)[C@@H]1O.[Au+] (stereo not given in full) ?
1

And for `O=c1cc(-c2cc(O)c(O)c(O)c2)oc2cc(O)cc(O)c12` ?
0.875

And for CN(CCC(N)CC(=O)N[C@H]1C=CC(n2ccc(N)nc2=O)O[C@@H]1C(=O)O)C(=N)N (stereo not given in full) ?
0.796

* * *

test summary: chemical genetic growth profiling, strain panel (AID 1159580);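 further: tested at 20 µM; growth read once vehicle control cultures reached saturation at 30 °C; 1 = growth at the plate median or of vehicle wells; lower values mean less growth of the strain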
condition parameters: S. cerevisiae deletion strains, growth OD, locus YLL026W, active compounds read low
About 2,000 (36%) of roughly 5,500 compounds were called active. Roughly 18% stayed inconclusive and do not appear here. The list shows a part of the results.
# normalized growth annotations
Respond using a number only.

Solved cases below.
compound=Cc1cc(O)c(C=O)c2c1C(=O)Oc1c(COC(=O)/C=C/C(=O)O)c(O)c(C(=O)O)c(C)c1O2 experimental_value=1.01
compound=CN(C)N=Nc1nc[nH]c1C(N)=O experimental_value=0.987
compound="C[C@@H]1O[C@@H](O[C@H]2C[C@@H](O)[C@]3(CO)C4C(CC[C@]3(O)C2)[C@@]2(O)CC[C@H](C3=CC(=O)OC3)[C@@]2(C)C[C@H]4O)[C@H](O)[C@H](O)[C@H]1O (some centres undefined)" experimental_value=1.03

Let's switch to this compound now.
Any idea what normalized growth was measured for `CCCCC[C@H](CC(=O)NO)C(=O)N[C@H](C(=O)N1CCC[C@H]1CO)C(C)C` ?
1.02

* * *

test summary: chemical genetic growth profiling, strain panel (AID 1159580);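 further: tested at 20 µM; growth read once vehicle control cultures reached saturation at 30 °C; 1 = growth at the plate median or of vehicle wells; lower values mean less growth of the strain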
condition parameters: S. cerevisiae deletion strains, growth OD, locus YNL307C, strain MCK1, active compounds read low
About 2,000 (36%) of roughly 5,500 compounds were called active. About 18% were inconclusive and are not listed. Some of the results follow.
readout type: normalized growth
Respond using a number only.

molecule=S=P(N1CC1)(N1CC1)N1CC1 readout_type="normalized growth" experimental_value=1.01
molecule=CCC(=O)Nc1ccc(Cl)c(Cl)c1 readout_type="normalized growth" experimental_value=0.992
molecule="CC(=O)O[C@H]1C[C@@H](OC(C)=O)C(C)(C)C2CC(=O)[C@]3(C)C(CC[C@@]4(C)[C@H](c5ccoc5)OC(=O)[C@H]5O[C@]543)[C@]21C (stereo partly drawn)" readout_type="normalized growth" experimental_value=1.02
molecule=O=c1cc(-c2ccccc2)oc2cc(O)cc(O)c12 readout_type="normalized growth" experimental_value=0.834
molecule=COc1cc(OC)c2c3c1C(=O)c1c(OC)cc(C)c4c(OC)cc(c-3c14)C(C)(C)C2=O readout_type="normalized growth" experimental_value=0.95
molecule="COc1cc2c(cc1O)C(Cc1ccc(O)cc1)N(C)CC2 (stereo not drawn)" readout_type="normalized growth" experimental_value=0.994
molecule=CCN(CCCc1ccccc1)CCCc1ccccc1 readout_type="normalized growth" experimental_value=1.04
molecule="CN1CC(CNC(=O)OCc2ccccc2)CC2c3cccc4c3c(cn4C)CC21 (stereo not drawn)" readout_type="normalized growth" experimental_value=0.985

Let's switch to this molecule now.
Any idea what normalized growth was measured for `CN(C(=O)CN(CCO)CC(=O)N(C)C(C)(C)Cc1ccccc1)C(C)(C)Cc1ccccc1` ?
0.99
